- Tested on: LN-18 (Glioblastoma)
- assay.protocol: combination Emax (second highest fraction inhibited in the dose matrix, 72 h); higher = more inhibition; extreme values may be limits of the assay
Quick reference for combination Emax among some compounds
Please reply with the value in numeric form only.

Would you please look over these solved cases?
Data request: Can you look up combination Emax on LN-18 (Glioblastoma) for CCN(CCO)CCCOc1ccc2c(Nc3cc(CC(=O)Nc4cccc(F)c4)[nH]n3)ncnc2c1 [AZD2811] + C[C@@H]1COCCN1C2=NC(=NC(=C2)C3(CC3)[S@](=N)(=O)C)C4=C5C=CNC5=NC=C4 [AZD6738] (first compound max 1 µM, 7x7, partner max 10 µM) ?
Data returned: 0.585

Data request: Can you check Cc1cc2ncnn2cc1Nc1ncc2c(n1)n(C1CCOCC1)c(=O)n2C [AZD7648] + O=C(c1cc(Cc2n[nH]c(=O)c3ccccc23)ccc1F)N1CCN(C(=O)C2CC2)CC1 [Olaparib] (first compound max 10 µM, 7x7, partner max 10 µM) next?
Data returned: 0.132

Data request: And Cc1c2c(nn1C)CSCc1cc(n(C)n1)CSc1cc(c3ccccc3c1)OCCCc1c(C(=O)O)n(C)c3c-2c(Cl)ccc13 [AZD5991] + Cc1cc2ncnn2cc1Nc1ncc2c(n1)n(C1CCOCC1)c(=O)n2C [AZD7648] (first compound max 1 µM, 7x7, partner max 10 µM) ?
Data returned: 0.35

Data request: Next entry: Cc1cc2ncnn2cc1Nc1ncc2c(n1)n(C1CCOCC1)c(=O)n2C [AZD7648] + CN(C)CCCOc1ccc(-c2ccc3ncc4c(c3c2)n(C2CCOCC2)c(=O)n4C)cn1 [AZD0156] (first compound max 10 µM, 7x7, partner max 1 µM)
Data returned: 0.17

Data request: Input CC1(C)CCC(CN2CCN(c3ccc(C(=O)NS(=O)(=O)c4ccc(NCC5CCOCC5)c([N+](=O)[O-])c4)c(Oc4cnc5[nH]ccc5c4)c3)CC2)=C(c2ccc(Cl)cc2)C1 [Venetoclax] + C=CCn1c(=O)c2cnc(Nc3ccc(N4CCN(C)CC4)cc3)nc2n1-c1cccc(C(C)(C)O)n1 [AZD1775] (first compound max 1 µM, partner max 1 µM)
Data returned: 0.555

Others:
Data request: Could you share what combination Emax was measured for CS(=O)(=O)CCNCc1ccc(-c2ccc3ncnc(Nc4ccc(OCc5cccc(F)c5)c(Cl)c4)c3c2)o1 [Lapatinib] + C[C@@H](Oc1cc(-c2cnn(C3CCNCC3)c2)cnc1N)c1c(Cl)ccc(F)c1Cl [Crizotinib] (first compound max 10 µM, 7x7, partner max 10 µM) , tested on LN-18 (Glioblastoma)?
Data returned: 0.965

----------
Quick list: combination Emax per entry.
- Tested on: U251 (Low Grade Glioma)
- assay.protocol: combination Emax (second highest fraction inhibited in the dose matrix, 72 h); higher = more inhibition; extreme values may be limits of the assay
Just the number, please.

Data request: Which value of combination Emax has been reported for CN(C)CCCOc1ccc(-c2ccc3ncc4c(c3c2)n(C2CCOCC2)c(=O)n4C)cn1 [AZD0156] + O=C(c1cc(Cc2n[nH]c(=O)c3ccccc23)ccc1F)N1CCN(C(=O)C2CC2)CC1 [Olaparib] (first compound max 3 µM, partner max 3 µM) in the records?
Data returned: 0.294

Data request: Same lookup for Cc1c2c(nn1C)CSCc1cc(n(C)n1)CSc1cc(c3ccccc3c1)OCCCc1c(C(=O)O)n(C)c3c-2c(Cl)ccc13 [AZD5991] + Cc1cc2ncnn2cc1Nc1ncc2c(n1)n(C1CCOCC1)c(=O)n2C [AZD7648] (first compound max 1 µM, 7x7, partner max 10 µM) , please.
Data returned: 0.229

Data request: Same read-out for CN(CCO)CC[C@H](CSc1ccccc1)Nc1ccc(S(=O)(=O)NC(=O)c2ccc(N3CCC([C@@H](O)c4ccccc4-c4ccc(Cl)cc4)CC3)cc2)cc1S(=O)(=O)C(F)(F)F [AZD4320] + C=CCn1c(=O)c2cnc(Nc3ccc(N4CCN(C)CC4)cc3)nc2n1-c1cccc(C(C)(C)O)n1 [AZD1775] (first compound max 1 µM, partner max 1 µM) ?
Data returned: 0.289

----------
- Tested on: GR-ST (B-Lymphoblastic Leukemia)
- assay.protocol: combination Emax (second highest fraction inhibited in the dose matrix, 72 h); higher = more inhibition; extreme values may be limits of the assay
attribute.measured: combination Emax
Please reply with the value in numeric form only.

Would you please look over these solved cases?
Data request: Which combination Emax is reported for this compound? CC1(C)CCC(CN2CCN(c3ccc(C(=O)NS(=O)(=O)c4ccc(NCC5CCOCC5)c([N+](=O)[O-])c4)c(Oc4cnc5[nH]ccc5c4)c3)CC2)=C(c2ccc(Cl)cc2)C1 [Venetoclax] + CCN(CCO)CCCOc1ccc2c(Nc3cc(CC(=O)Nc4cccc(F)c4)[nH]n3)ncnc2c1 [AZD2811] (first compound max 1 µM, 7x7, partner max 1 µM)
Data returned: 0.648

Data request: Okay, and Cc1c2c(nn1C)CSCc1cc(n(C)n1)CSc1cc(c3ccccc3c1)OCCCc1c(C(=O)O)n(C)c3c-2c(Cl)ccc13 [AZD5991] + CS(=O)(=O)CCNCc1ccc(-c2ccc3ncnc(Nc4ccc(OCc5cccc(F)c5)c(Cl)c4)c3c2)o1 [Lapatinib] (first compound max 1 µM, 7x7, partner max 10 µM) ?
Data returned: 0.955

Now for another entry.
Data request: Give its combination Emax value. Item: CC(=O)c1c(C)c2cnc(Nc3ccc(N4CCNCC4)cn3)nc2n(C2CCCC2)c1=O [Palbociclib] + Cn1cnc2c(F)c(Nc3ccc(Br)cc3Cl)c(C(=O)NOCCO)cc21 [Selumetinib] (first compound max 10 µM, 7x7, partner max 10 µM)
Data returned: 0.726

----------
Collected Bliss excess values appear next to each entry.
- System: ES8 (Ewing's Sarcoma)
- assay.protocol: Bliss excess, mean over the matrix (fraction); higher = more synergy
Answer using only a numeral; do not append any unit.

Use the examples below as a reference point.
Data request: Look at this compound and give its reported Bliss excess. NC1(C(=O)N[C@@H](CCO)c2ccc(Cl)cc2)CCN(c2ncnc3[nH]ccc23)CC1 [Capivasertib] + C[C@@H]1COCCN1C2=NC(=NC(=C2)C3(CC3)[S@](=N)(=O)C)C4=C5C=CNC5=NC=C4 [AZD6738] (first compound max 10 µM, 7x7, partner max 10 µM)
Data returned: 0.0038

Data request: And then C=CCn1c(=O)c2cnc(Nc3ccc(N4CCN(C)CC4)cc3)nc2n1-c1cccc(C(C)(C)O)n1 [AZD1775] + O=C(c1cc(Cc2n[nH]c(=O)c3ccccc23)ccc1F)N1CCN(C(=O)C2CC2)CC1 [Olaparib] (first compound max 1 µM, partner max 10 µM) , what is it?
Data returned: 0.0059

Proceed to the following item.
Data request: Request the reported Bliss excess associated with CN(CCO)CC[C@H](CSc1ccccc1)Nc1ccc(S(=O)(=O)NC(=O)c2ccc(N3CCC([C@@H](O)c4ccccc4-c4ccc(Cl)cc4)CC3)cc2)cc1S(=O)(=O)C(F)(F)F [AZD4320] + CS(=O)(=O)CCNCc1ccc(-c2ccc3ncnc(Nc4ccc(OCc5cccc(F)c5)c(Cl)c4)c3c2)o1 [Lapatinib] (first compound max 1 µM, 7x7, partner max 10 µM)
Data returned: 0.121

----------
- Test system: GR-ST (B-Lymphoblastic Leukemia)
- assay.protocol: combination Emax (second highest fraction inhibited in the dose matrix, 72 h); higher = more inhibition; extreme values may be limits of the assay
Listing of recorded combination Emax by entry.
I only need the number, thanks.

Data request: Provide the documented combination Emax with GR-ST (B-Lymphoblastic Leukemia) as the system for NC1(C(=O)N[C@@H](CCO)c2ccc(Cl)cc2)CCN(c2ncnc3[nH]ccc23)CC1 [Capivasertib] + Cn1cnc2c(F)c(Nc3ccc(Br)cc3Cl)c(C(=O)NOCCO)cc21 [Selumetinib] (first compound max 10 µM, 7x7, partner max 10 µM)
Data returned: 0.678

Others:
Data request: Find combination Emax (GR-ST (B-Lymphoblastic Leukemia)) for the entry CN(C)CCCOc1ccc(-c2ccc3ncc4c(c3c2)n(C2CCOCC2)c(=O)n4C)cn1 [AZD0156] + CCN(CCO)CCCOc1ccc2c(Nc3cc(CC(=O)Nc4cccc(F)c4)[nH]n3)ncnc2c1 [AZD2811] (first compound max 1 µM, 7x7, partner max 1 µM)
Data returned: 0.276

----------
- System: EVSA-T (Breast Carcinoma)
- assay.protocol: Bliss excess, mean over the matrix (fraction); higher = more synergy
Catalogue of Bliss excess readings, one per entry.
// no unit string in output, number only

Data request: Request: Bliss excess, test system EVSA-T (Breast Carcinoma), entry CC1(C)CCC(CN2CCN(c3ccc(C(=O)NS(=O)(=O)c4ccc(NCC5CCOCC5)c([N+](=O)[O-])c4)c(Oc4cnc5[nH]ccc5c4)c3)CC2)=C(c2ccc(Cl)cc2)C1 [Venetoclax] + CN(C)CCCOc1ccc(-c2ccc3ncc4c(c3c2)n(C2CCOCC2)c(=O)n4C)cn1 [AZD0156] (first compound max 1 µM, 7x7, partner max 1 µM)
Data returned: -0.0005

Data request: // same read-out, input: COc1cc2c(cc1OCCCCCOc1cc3c(cc1OC)C(=O)N1C=C(C)C[C@H]1C=N3)N=C[C@@H]1CC(C)=CN1C2=O [SG3199] + O=C(c1cc(Cc2n[nH]c(=O)c3ccccc23)ccc1F)N1CCN(C(=O)C2CC2)CC1 [Olaparib] (first compound max 0.001 µM, 7x7, partner max 10 µM)
Data returned: -0.0094

Now consider a different compound.
Data request: Look up Bliss excess with EVSA-T (Breast Carcinoma) for this compound: COc1nnc2ccc(N3CCC(c4ccc(OCCN5CCN(C)C(=O)[C@H]5C)cc4)CC3)nn12 [AZD5153] + CC1(C)CCC(CN2CCN(c3ccc(C(=O)NS(=O)(=O)c4ccc(NCC5CCOCC5)c([N+](=O)[O-])c4)c(Oc4cnc5[nH]ccc5c4)c3)CC2)=C(c2ccc(Cl)cc2)C1 [Venetoclax] (first compound max 1 µM, 7x7, partner max 1 µM)
Data returned: -0.0008
